Numbers sourced from patent US9409914B2.

study-target: GCN2 (Homo sapiens)
Sequence (Q9P2K8 whole entry, species assumed): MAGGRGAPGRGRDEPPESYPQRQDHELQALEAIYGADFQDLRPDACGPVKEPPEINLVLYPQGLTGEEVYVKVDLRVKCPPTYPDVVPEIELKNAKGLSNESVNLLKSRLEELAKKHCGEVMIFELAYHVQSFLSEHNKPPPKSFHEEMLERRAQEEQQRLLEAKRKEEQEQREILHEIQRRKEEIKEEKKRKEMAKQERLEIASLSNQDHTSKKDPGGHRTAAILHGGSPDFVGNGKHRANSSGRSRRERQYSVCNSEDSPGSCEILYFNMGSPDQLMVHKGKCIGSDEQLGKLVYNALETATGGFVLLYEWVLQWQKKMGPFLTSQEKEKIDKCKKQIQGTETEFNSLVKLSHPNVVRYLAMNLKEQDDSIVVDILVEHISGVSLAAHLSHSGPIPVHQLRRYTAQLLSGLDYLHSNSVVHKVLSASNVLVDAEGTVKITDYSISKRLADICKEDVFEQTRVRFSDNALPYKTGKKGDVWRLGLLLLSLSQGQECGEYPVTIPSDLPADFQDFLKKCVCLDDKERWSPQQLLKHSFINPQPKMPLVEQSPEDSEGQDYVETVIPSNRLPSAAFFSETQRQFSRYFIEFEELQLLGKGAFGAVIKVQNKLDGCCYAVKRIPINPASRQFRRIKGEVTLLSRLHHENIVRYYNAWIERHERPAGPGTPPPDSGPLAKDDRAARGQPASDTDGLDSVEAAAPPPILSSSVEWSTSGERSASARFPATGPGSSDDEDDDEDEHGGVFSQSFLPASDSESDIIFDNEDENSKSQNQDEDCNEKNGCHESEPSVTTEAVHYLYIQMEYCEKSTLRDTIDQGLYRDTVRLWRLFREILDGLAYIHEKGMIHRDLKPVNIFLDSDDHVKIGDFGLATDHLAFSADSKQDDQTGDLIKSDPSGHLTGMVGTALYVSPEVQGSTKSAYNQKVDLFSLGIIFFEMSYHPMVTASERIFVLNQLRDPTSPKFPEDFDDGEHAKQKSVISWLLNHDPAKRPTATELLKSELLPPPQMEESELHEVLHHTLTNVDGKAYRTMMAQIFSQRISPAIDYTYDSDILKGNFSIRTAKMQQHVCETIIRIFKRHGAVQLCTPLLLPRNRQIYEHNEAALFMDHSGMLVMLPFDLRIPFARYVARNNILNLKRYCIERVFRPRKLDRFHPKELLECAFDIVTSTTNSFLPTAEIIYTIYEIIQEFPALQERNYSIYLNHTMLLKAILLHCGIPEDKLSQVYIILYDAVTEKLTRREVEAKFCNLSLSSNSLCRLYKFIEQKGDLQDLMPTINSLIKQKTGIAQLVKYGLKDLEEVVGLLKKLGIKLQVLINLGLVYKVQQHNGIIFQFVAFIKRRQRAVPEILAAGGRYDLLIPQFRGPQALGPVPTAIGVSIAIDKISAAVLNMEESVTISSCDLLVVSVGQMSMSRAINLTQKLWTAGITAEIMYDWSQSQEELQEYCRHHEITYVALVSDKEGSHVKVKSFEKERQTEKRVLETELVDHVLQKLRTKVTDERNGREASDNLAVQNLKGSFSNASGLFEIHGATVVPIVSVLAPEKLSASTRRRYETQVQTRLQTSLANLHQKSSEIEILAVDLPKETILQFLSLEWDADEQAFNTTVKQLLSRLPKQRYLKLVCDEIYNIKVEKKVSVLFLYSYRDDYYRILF
test-method-notes: GCN2 enzyme assay (TR-FRET Lanthascreen, phosphorylation of GFP-eIF2alpha)
Format: biochemical
particulars: 10 μM ATP, 80 nM GFP-eIF2alpha, 30 nM GCN2, room temperature
Protocol: GCN2: Assay principle & conditions This assay can quantificate the activity of the serin kinase GCN2 (general control non-derepressible-2). This kinase is involved in the stress metabolism of cells. […] The enzymatic reaction is stopped by addition of EDTA. The amount of phosphorylated eIF2alpha is determined by TR-FRET (Lanthascreen): A complex is formed consisting of antibody and GFP labelled phospho-eIF2a, which allows a FRET upon exitation at 340 nm. […]
The entries below come with measured IC50 values attached.

mol-smiles | IC50
CC1(C)C(=O)Nc2cc(-n3nnc4cnc(Nc5cnn(C6CCOCC6)c5)nc43)ccc21 | < 300 nM
NS(=O)(=O)c1ccc(-n2nnc3cnc(Nc4cnn(CCn5cccn5)c4)nc32)cc1 | < 300 nM
CCn1cc(Nc2ncc3nnn(-c4cccc(C(N)=O)c4)c3n2)cn1 | 300 to 3000 nM

Documented IC50 of c1nn(C2CCOCC2)cc1Nc1ncc2nnn(-c3ccc4cn[nH]c4c3)c2n1 : < 300 nM
